- Assay system: Tyrosine-protein phosphatase non-receptor type 2 (Homo sapiens) (UniProt P17706)
- Sequence (P17706 whole entry): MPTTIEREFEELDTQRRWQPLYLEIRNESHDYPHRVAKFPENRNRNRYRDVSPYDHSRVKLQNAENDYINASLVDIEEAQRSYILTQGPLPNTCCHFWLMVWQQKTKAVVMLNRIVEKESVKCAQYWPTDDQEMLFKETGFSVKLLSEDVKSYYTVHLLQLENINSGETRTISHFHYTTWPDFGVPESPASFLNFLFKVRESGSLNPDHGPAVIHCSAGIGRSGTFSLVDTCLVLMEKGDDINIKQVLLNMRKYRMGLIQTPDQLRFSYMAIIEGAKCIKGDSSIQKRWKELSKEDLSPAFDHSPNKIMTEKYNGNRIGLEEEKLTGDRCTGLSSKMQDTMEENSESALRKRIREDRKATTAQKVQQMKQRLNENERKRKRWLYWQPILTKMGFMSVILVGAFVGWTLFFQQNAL
- Experiment summary: Compound was tested for inhibition of T-cell protein tyrosine phosphatase TC-PTP at a concentration of 100 uM in fluorometric assay using DiFMUP
Quantity name: inhibition (%)

For orientation, consider the following solved cases.
CC(Cn1c(=O)n2n(c1=O)C(C(=O)NC(Cc1ccc3sccc(=O)c3c1)C(=O)O)C=CC2CCCC(=O)O)c1ccccc1 (centres undefined)    90
O=C(O)CCCC1C=CC(C(=O)NC(Cc2ccc3sccc(=O)c3c2)C(=O)O)n2c(=O)n(Cc3cc(F)ccc3F)c(=O)n21 (centres undefined)    100

(A) O=C(O)CCCC1C=CC(C(=O)NC(Cc2ccc3sccc(=O)c3c2)C(=O)O)n2c(=O)n(-c3ccc(Oc4ccccc4)cc3)c(=O)n21 (centres undefined)
(B) O=C(O)CCCC1C=CC(C(=O)NC(Cc2ccc3sccc(=O)c3c2)C(=O)O)n2c(=O)n(CC3CCCCC3)c(=O)n21 (centres undefined)
Prompt: Lab log: flag the item ( A or B ) with the smaller inhibition figure. Your answer should be the label attached to the chosen record.
Completion: B

* * *

- Assay system: Receptor-type tyrosine-protein phosphatase C (CD45) (Homo sapiens)
- Experiment summary: Compound was tested for inhibition of CD45 tyrosine phosphatase at a concentration of 100 uM in fluorometric assay using DiFMUP
Quantity name: inhibition (%)

O=C(O)CCCC1C=CC(C(=O)NC(Cc2ccc3sccc(=O)c3c2)C(=O)O)n2c(=O)n(-c3ccc(Oc4ccccc4)cc3)c(=O)n21 (centres undefined)    70
O=C(O)CCCC1C=CC(C(=O)NC(Cc2ccc3sccc(=O)c3c2)C(=O)O)n2c(=O)n(Cc3cc(F)ccc3F)c(=O)n21 (centres undefined)    50
CC(Cn1c(=O)n2n(c1=O)C(C(=O)NC(Cc1ccc3sccc(=O)c3c1)C(=O)O)C=CC2CCCC(=O)O)c1ccccc1 (centres undefined)    55
O=C(O)CCCC1C=CC(C(=O)NC(Cc2ccc3sccc(=O)c3c2)C(=O)O)n2c(=O)n(CC3CCCCC3)c(=O)n21 (centres undefined)    70

* * *

- Assay system: Tyrosine-protein phosphatase non-receptor type 1 (Homo sapiens) (UniProt P18031)
- Sequence (P18031 whole entry): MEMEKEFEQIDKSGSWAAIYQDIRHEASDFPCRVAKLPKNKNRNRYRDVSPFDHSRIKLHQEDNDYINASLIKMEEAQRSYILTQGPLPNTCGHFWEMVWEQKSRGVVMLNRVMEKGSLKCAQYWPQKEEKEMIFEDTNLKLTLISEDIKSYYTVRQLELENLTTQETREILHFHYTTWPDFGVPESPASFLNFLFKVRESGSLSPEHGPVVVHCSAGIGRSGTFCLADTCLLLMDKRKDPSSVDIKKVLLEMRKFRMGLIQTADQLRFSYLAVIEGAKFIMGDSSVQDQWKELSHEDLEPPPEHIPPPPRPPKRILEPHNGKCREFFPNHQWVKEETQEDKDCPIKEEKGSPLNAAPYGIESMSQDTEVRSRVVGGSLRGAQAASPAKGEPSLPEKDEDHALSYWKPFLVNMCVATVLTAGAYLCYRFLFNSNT
- Experiment summary: Compound was tested for inhibition of Protein-tyrosine phosphatase 1B at a concentration of 100 uM in fluorometric assay using DiFMUP
Quantity name: inhibition (%)

O=C(O)CCCC1C=CC(C(=O)NC(Cc2ccc3sccc(=O)c3c2)C(=O)O)n2c(=O)n(CC3CCCCC3)c(=O)n21 (centres undefined)    70
O=C(O)CCCC1C=CC(C(=O)NC(Cc2ccc3sccc(=O)c3c2)C(=O)O)n2c(=O)n(-c3ccc(Oc4ccccc4)cc3)c(=O)n21 (centres undefined)    100
O=C(O)CCCC1C=CC(C(=O)NC(Cc2ccc3sccc(=O)c3c2)C(=O)O)n2c(=O)n(Cc3cc(F)ccc3F)c(=O)n21 (centres undefined)    95
CC(Cn1c(=O)n2n(c1=O)C(C(=O)NC(Cc1ccc3sccc(=O)c3c1)C(=O)O)C=CC2CCCC(=O)O)c1ccccc1 (centres undefined)    95

* * *

- Assay system: Receptor-type tyrosine-protein phosphatase F (Homo sapiens)
- Experiment summary: Compound was tested for inhibition of Lar tyrosine phosphatase at a concentration of 10 uM in fluorometric assay using DiFMUP
Quantity name: inhibition (%)

Some molecules with known inhibition results, for comparison:
O=C(O)CCCC1C=CC(C(=O)NC(Cc2ccc3sccc(=O)c3c2)C(=O)O)n2c(=O)n(CC3CCCCC3)c(=O)n21 (centres undefined)    0
O=C(O)CCCC1C=CC(C(=O)NC(Cc2ccc3sccc(=O)c3c2)C(=O)O)n2c(=O)n(Cc3cc(F)ccc3F)c(=O)n21 (centres undefined)    25

(I) O=C(O)CCCC1C=CC(C(=O)NC(Cc2ccc3sccc(=O)c3c2)C(=O)O)n2c(=O)n(-c3ccc(Oc4ccccc4)cc3)c(=O)n21 (centres undefined)
(II) CC(Cn1c(=O)n2n(c1=O)C(C(=O)NC(Cc1ccc3sccc(=O)c3c1)C(=O)O)C=CC2CCCC(=O)O)c1ccccc1 (centres undefined)
Prompt: Compare the recorded inhibition of I and II ; state which is larger. Response format: the label of the selected entry.
Completion: I
(I: 50%, II: 10%)
